As shown below, each of these molecules has a reported Papp A→B at 2 h value.
assay-details: in vitro
experimental-conditions: human, Caco-2
Method: Caco-2: The cell permeability of a substance can be investigated by means of in vitro testing in a flux assay using Caco-2 cells [M. D. Troutman and D. R. Thakker, Pharm. Res. 20 (8), 1210-1224 (2003)]. For this purpose, the cells were cultured for 15-16 days on 24-well filter plates. […] The permeability was evaluated on the basis of a Papp value, which was calculated using the formula published by Schwab et al. [D. Schwab et al., J. Med. Chem. 46, 1716-1725 (2003)]. […]

// known answers, use as guide
{"columns": ["molecule", "Papp A→B at 2 h"],
 "data": [
  ["CC[C@@]1(O)C(=O)OCc2c1cc1n(c2=O)Cc2c-1nc1cc(F)c(C)c3c1c2[C@@H](NC(=O)C(F)(F)F)CC3 [Compound 8]", "1 to 9.9 ×10⁻⁶ cm/s"],
  ["CCN(CC)[C@H]1CCc2c(C)c(F)cc3nc4c(c1c23)Cn1c-4cc2c(c1=O)COC(=O)[C@]2(O)CC [Compound 17]", "10 to 99.9 ×10⁻⁶ cm/s"],
  ["CCN[C@H]1CCc2c(C)c(F)cc3nc4c(c1c23)Cn1c-4cc2c(c1=O)COC(=O)[C@]2(O)CC.O=C(O)C(F)(F)F [Compound 16]", "10 to 99.9 ×10⁻⁶ cm/s"],
  ["CC[C@@]1(O)C(=O)OCc2c1cc1n(c2=O)Cc2c-1nc1cc(F)c(C)c3c1c2[C@@H](NC(=O)Cc1ccncc1)CC3 [Compound 9]", "0.1 to 0.9 ×10⁻⁶ cm/s"]
]}

Okay, next one:
Ask: Would you mind telling me what Papp A→B at 2 h value was observed for CC[C@@]1(O)C(=O)OCc2c1cc1n(c2=O)Cc2c-1nc1cc(F)c(C)c3c1c2[C@@H](NC(C)=O)CC3 [Compound 7] ?
Result: 0.1 to 0.9 ×10⁻⁶ cm/s

###

Test system: HT29
assay-details: Cytotoxicity in vitro in the presence and absence of elastase (MTT)
Format: cell-based, human
experimental-conditions: Homo sapiens, HT-29; HT29 cells; with 10 nM elastase; 72 h; MTT; read-out: HT29 IC50 w elastase
As shown below, each of these compounds has a reported IC50 value.

{"columns": ["smiles-str", "IC50"],
 "data": [
  ["CC[C@@]1(O)C(=O)OCc2c1cc1n(c2=O)Cc2c-1nc1cc(F)c(C)c3c1c2[C@@H](NC(C)=O)CC3", "0.01 to 0.1 nM"]
]}

Ask: Would you mind telling me what IC50 value was observed for CC[C@@]1(O)C(=O)OCc2c1cc1n(c2=O)Cc2c-1nc1cc(F)c(C)c3c1c2[C@@H](NC(=O)Cc1ccncc1)CC3 ?
Result: 0.1 to 1 nM

Ask: Would you mind telling me what IC50 value was observed for CC[C@@]1(O)C(=O)OCc2c1cc1n(c2=O)Cc2c-1nc1cc(F)c(C)c3c1c2[C@@H](NC(=O)C(F)(F)F)CC3 ?
Result: 0.01 to 0.1 nM

Ask: Would you mind telling me what IC50 value was observed for CCN(CC)[C@H]1CCc2c(C)c(F)cc3nc4c(c1c23)Cn1c-4cc2c(c1=O)COC(=O)[C@]2(O)CC ?
Result: 1.1 to 10 nM

Ask: Would you mind telling me what IC50 value was observed for CCN[C@H]1CCc2c(C)c(F)cc3nc4c(c1c23)Cn1c-4cc2c(c1=O)COC(=O)[C@]2(O)CC.O=C(O)C(F)(F)F ?
Result: 0.1 to 1 nM
